Data origin: patent US6403633B2

# SYSTEM_NAME: human factor Xa (Homo sapiens, UniProt P00742)
# Sequence (P00742 235-488 limits assumed): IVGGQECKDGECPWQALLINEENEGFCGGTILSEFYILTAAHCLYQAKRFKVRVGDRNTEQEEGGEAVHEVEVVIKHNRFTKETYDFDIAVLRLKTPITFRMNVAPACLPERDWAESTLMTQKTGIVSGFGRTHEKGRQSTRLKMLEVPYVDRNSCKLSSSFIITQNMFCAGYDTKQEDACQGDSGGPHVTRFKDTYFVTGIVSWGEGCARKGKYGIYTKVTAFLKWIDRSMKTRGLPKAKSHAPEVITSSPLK
# Sequence (P00742 41-179 partner limits assumed): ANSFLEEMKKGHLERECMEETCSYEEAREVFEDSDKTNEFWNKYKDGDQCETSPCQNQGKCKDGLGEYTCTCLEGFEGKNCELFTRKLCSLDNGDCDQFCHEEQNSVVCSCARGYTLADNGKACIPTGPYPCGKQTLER
Structures can show the parent of a compound that is named as a salt.
REPORTED_PROPERTY: pKi
pKi is defined as minus the log10 of a concentration measured in mol/L.

Q: Which pKi reading was recorded for the molecule CSc1sc(C(=N)N)cc1-c1nc(-c2sc3ccccc3c2Cl)cs1 [Example 119, hydrochloride] ?
A: 5.52

---

# SYSTEM_NAME: human plasmin (Homo sapiens, UniProt P00747)
# Sequence (P00747 581-810 limits assumed): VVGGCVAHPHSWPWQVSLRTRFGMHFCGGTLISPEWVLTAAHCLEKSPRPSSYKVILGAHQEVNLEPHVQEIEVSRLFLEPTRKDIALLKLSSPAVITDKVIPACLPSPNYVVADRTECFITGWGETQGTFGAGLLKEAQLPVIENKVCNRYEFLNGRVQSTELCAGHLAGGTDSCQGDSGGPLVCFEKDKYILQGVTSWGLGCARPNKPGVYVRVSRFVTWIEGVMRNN
# Sequence (P00747 97-580 partner limits assumed): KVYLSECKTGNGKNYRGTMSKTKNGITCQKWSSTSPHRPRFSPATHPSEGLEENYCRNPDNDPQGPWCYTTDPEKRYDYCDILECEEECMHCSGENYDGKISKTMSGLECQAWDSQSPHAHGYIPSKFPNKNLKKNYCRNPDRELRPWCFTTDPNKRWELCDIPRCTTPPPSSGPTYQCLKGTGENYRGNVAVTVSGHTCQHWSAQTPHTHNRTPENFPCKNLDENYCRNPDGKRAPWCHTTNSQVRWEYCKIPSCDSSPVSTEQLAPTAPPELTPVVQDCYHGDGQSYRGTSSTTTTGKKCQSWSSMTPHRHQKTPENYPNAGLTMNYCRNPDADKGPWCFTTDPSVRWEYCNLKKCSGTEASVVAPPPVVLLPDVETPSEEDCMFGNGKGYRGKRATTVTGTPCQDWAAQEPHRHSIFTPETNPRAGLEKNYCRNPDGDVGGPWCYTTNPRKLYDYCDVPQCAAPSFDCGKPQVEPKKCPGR
Counter-ions that a name gives are not always drawn.
REPORTED_PROPERTY: pKi
pKi is defined as minus the log10 of a concentration measured in mol/L.

Q: # returns recorded pKi (system: human plasmin (Homo sapiens, UniProt P00747)) for CSc1sc(C(=N)N)cc1-c1nc(-c2ccc3c(c2)OCCO3)cs1 [Example 12, hydrochloride]
A: 5.14

---

# SYSTEM_NAME: bovine trypsin (Bos taurus, UniProt P00760)
# Construct: purchased Sigma T8642
# Sequence (P00760 24-246): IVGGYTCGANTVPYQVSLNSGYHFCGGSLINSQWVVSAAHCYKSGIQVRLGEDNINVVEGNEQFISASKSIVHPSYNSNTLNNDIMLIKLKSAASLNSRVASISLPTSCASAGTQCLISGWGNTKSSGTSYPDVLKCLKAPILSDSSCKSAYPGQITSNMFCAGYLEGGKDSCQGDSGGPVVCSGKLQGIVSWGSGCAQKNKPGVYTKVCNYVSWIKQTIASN
# EXPERIMENT_NOTES: In vitro inhibition of purified enzymes, Ki determination: trypsin
# Format: biochemical
# CONDITION_NOTES: substrate N-benzoyl-Phe-Val-Arg-p-nitroanilide 13 μM, [Trypsin]=4 nM, pH 7.5, 37° C.
Counter-ions that a name gives are not always drawn.
REPORTED_PROPERTY: Ki (nM)
Field format: number, assumed nM, no unit text.

Q: Which Ki reading was recorded for the molecule COc1cccc(-c2csc(-c3cc(C(=N)N)sc3SC)n2)c1 [Example 8, hydrochloride] ?
A: 858

Q: One more molecule: CSc1sc(C(=N)N)cc1-c1nc(-c2cccc(OCC(=O)N3CCOCC3)c2)cs1 [Example 52]
A: 474

---

# SYSTEM_NAME: UniProt P00750
# Sequence (P00750 36-562, species assumed): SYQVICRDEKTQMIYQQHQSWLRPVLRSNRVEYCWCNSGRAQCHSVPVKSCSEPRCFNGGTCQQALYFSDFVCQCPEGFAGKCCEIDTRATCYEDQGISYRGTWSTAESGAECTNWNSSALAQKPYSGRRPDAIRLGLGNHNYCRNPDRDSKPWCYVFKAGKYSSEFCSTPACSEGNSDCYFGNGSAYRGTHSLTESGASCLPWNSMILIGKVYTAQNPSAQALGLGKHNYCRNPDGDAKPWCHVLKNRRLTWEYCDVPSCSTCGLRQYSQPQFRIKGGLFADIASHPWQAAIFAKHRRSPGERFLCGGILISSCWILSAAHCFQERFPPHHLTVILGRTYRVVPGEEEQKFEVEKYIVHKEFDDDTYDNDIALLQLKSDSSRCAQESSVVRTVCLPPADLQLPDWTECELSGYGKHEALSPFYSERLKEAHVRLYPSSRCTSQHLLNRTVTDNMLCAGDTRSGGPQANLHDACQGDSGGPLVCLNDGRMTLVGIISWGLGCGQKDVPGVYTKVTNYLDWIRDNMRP
REPORTED_PROPERTY: pKi
pKi is defined as minus the log10 of a concentration measured in mol/L.

Q: Which pKi reading was recorded for the compound CSc1sc(C(=N)N)cc1-c1nc(-c2ccc(Cl)cc2)cs1 [Example 1] ?
A: 5.02
